- studySystem: UniProt O00187
- assayComment: MASP-2 co-crystallization, X-ray crystallography and structure analysis (H-bonds, van der Waals contacts)
- conditionInfo: Table A5-2 pharmacophore distance, S3/S4 region
recordedEndpoint: d(O2,N2)
Number, no unit, nothing else.

Recorded d(O2,N2), per entry:
N=C(N)c1ccc(CNC(=O)[C@@H]2CCN2C(=O)[C@H](NCC(=O)O)C2Cc3ccccc3C2)cc1: 3.19
Cc1nc(N)ccc1CNC(=O)[C@H](C)NC(=O)[C@H]1C[C@H](Cc2cccc(Cl)c2)CN1.Cl.Cl [1328_4]: 2.79
C[C@H](NC(=O)[C@H]1Cc2c([nH]c3ccccc23)CN1)C(=O)NCc1ccc(C(=N)N)cc1.Cl.Cl [1097_1]: 2.81
C[C@H](NC(=O)[C@H]1C[C@@H](c2ccccc2)CCN1)C(=O)NCc1cc(Cl)ccc1O.Cl [1078_11]: 2.97
C[C@H](NC(=O)[C@H](N)CCCc1ccccc1)C(=O)NCc1ccc(C(=N)N)cc1.Cl.Cl [1042_2]: 2.86
Cc1nc(N)ccc1CNC(=O)[C@H](C)NC(=O)[C@H]1C[C@H](Cc2ccc3ccccc3c2)CN1: 2.74
C[C@H](NC(=O)[C@H]1C[C@@H](c2ccccc2)CCN1)C(=O)NCc1cc(Cl)ccc1O.Cl [1078_5]: 2.95
C[C@H](NC(=O)[C@H](N)CCc1ccccc1)C(=O)NCc1ccc(N)nc1.Cl.Cl [1007_1]: 2.79

The record that follows has no d(O2,N2) shown yet.
# d(O2,N2) (compound: C[C@H](NC(=O)[C@H]1C[C@H](Cc2ccccc2)CN1)C(=O)NCc1ccc(C(=N)N)cc1.Cl.Cl [1306_1] ) is 2.66

---

- studySystem: MASP-2 CCP2-SP (Homo sapiens (Human))
- assayComment: MASP-2 co-crystallization, X-ray crystallography and structure analysis (H-bonds, van der Waals contacts)
- conditionInfo: Table A2-9 second part; ARG 630; AA atoms N, NE, NH1
Structures can show the parent of a compound that is named as a salt.
Listing of recorded van der Waals contact distance, MASP-2 amino acid atom to compound atom by entry.
Number, no unit, nothing else.

Recorded van der Waals contact distance, MASP-2 amino acid atom to compound atom, per entry:
C[C@H](NC(=O)[C@H]1C[C@H](Cc2ccccc2)CN1)C(=O)NCc1cnc2[nH]cc(Cl)c2c1: 3.59
C[C@H](NC(=O)[C@H](N)CCc1cccc(Cl)c1)C(=O)NCc1ccc(C(=N)N)cc1: 3.81
C[C@H](NC(=O)[C@H]1C[C@H](Cc2ccccc2)CN1)C(=O)NCc1cc(Cl)ccc1-n1cnnn1 [compound 1371, Hydrochloride]: 3.44
N=C(N)c1ccc(CNC(=O)[C@@H]2CCN2C(=O)[C@H](NCC(=O)O)C2Cc3ccccc3C2)cc1: 3.69
C[C@H](NC(=O)[C@H]1C[C@H](Cc2ccccc2)CN1)C(=O)NCc1ccc(C(=N)N)cc1: 3.76

The record that follows has no van der Waals contact distance, MASP-2 amino acid atom to compound atom shown yet.
# van der Waals contact distance, MASP-2 amino acid atom to compound atom (molecule: C[C@H](NC(=O)[C@H](N)CCc1cc(Cl)cc(Cl)c1)C(=O)NCc1ccc(C(=N)N)cc1 ) is 3.67

---

- studySystem: MASP-2 CCP2-SP (Homo sapiens (Human))
- assayComment: MASP-2 co-crystallization, X-ray crystallography and structure analysis (H-bonds, van der Waals contacts)
- conditionInfo: Table A4-1; element C3
Counter-ions that a name gives are not always drawn.
recordedEndpoint: Ligand-pharmacophore element distance, pharmacophore element C3
Number, no unit, nothing else.

C[C@H](NC(=O)[C@H]1C[C@H](Cc2ccccc2)CN1)C(=O)NCc1cnc2[nH]cc(Cl)c2c1: 0
Cc1nc(N)ccc1CNC(=O)[C@H](C)NC(=O)[C@H]1C[C@H](Cc2ccccc2Br)CN1.O=C(O)C(F)(F)F.O=C(O)C(F)(F)F [1372_B]: 0.1
C[C@H](NC(=O)[C@H]1Cc2c([nH]c3ccccc23)CN1)C(=O)NCc1ccc(C(=N)N)cc1.Cl.Cl [1097_2]: 0
C[C@H](NC(=O)[C@H](N)C1Cc2ccccc2C1)C(=O)NCc1ccc2c(N)nccc2c1.Cl.Cl [1088_A]: 0
Cc1nc(N)ccc1CNC(=O)[C@H](C)NC(=O)[C@H]1C[C@@H](c2ccccc2)CCN1CCC(=O)O [compound 1411, Trifluoroacetate salt]: 0.32

# Ligand-pharmacophore element distance, pharmacophore element C3 (molecule: Cc1nc(N)ccc1CNC(=O)[C@H](C)NC(=O)[C@H]1C[C@H](Cc2ccccc2)CN1 ) is 0.09

# Ligand-pharmacophore element distance, pharmacophore element C3 (molecule: CC(=O)Nc1ccc(CCNC(CCc2ccccc2)C(=O)NC(C)C(=O)NCc2ccc(C(=N)N)cc2)cc1.Cl.Cl (stereo not shown) [1345_2] ) is 0

---

- studySystem: UniProt:O00187
- assayComment: MASP-2 co-crystallization, X-ray crystallography and structure analysis (H-bonds, van der Waals contacts)
- conditionInfo: Table A7-1; between pharmacophore elements of the bound compound
Counter-ions that a name gives are not always drawn.
Listing of recorded Pharmacophore torsion angle a(O1, H4, O2, CA1) by entry.
Number, no unit, nothing else.

C[C@H](NC(=O)[C@H]1Cc2c([nH]c3ccccc23)CN1)C(=O)NCc1ccc(C(=N)N)cc1.Cl.Cl [1097_1]: −66.34

# Pharmacophore torsion angle a(O1, H4, O2, CA1) (compound: C[C@H](NC(=O)[C@H]1C[C@@H](c2ccccc2)CCN1)C(=O)NCc1cc(Cl)ccc1O.Cl [1078_13] ) is −78.80

# Pharmacophore torsion angle a(O1, H4, O2, CA1) (compound: O=c1oc(-c2ccccc2[N+](=O)[O-])nc2ccccc12 [compound 14] ) is 38.29

# Pharmacophore torsion angle a(O1, H4, O2, CA1) (compound: CC(=O)Nc1ccc(CCN[C@H](CCc2ccccc2)C(=O)N[C@@H](C)C(=O)NCc2ccc(N)nc2C)cc1 [compound 1368, Dihydrochloride] ) is −74.89

# Pharmacophore torsion angle a(O1, H4, O2, CA1) (compound: C[C@H](NC(=O)[C@H]1C[C@@H](c2ccccc2)CCN1)C(=O)NCc1cc(Cl)ccc1O.Cl [1078_4] ) is −58.33

# Pharmacophore torsion angle a(O1, H4, O2, CA1) (compound: C[C@H](NC(=O)[C@H](N)C1Cc2ccccc2C1)C(=O)NCc1ccc2c(N)nccc2c1.Cl.Cl [1088_A] ) is −54.60

# Pharmacophore torsion angle a(O1, H4, O2, CA1) (compound: C[C@H](NC(=O)[C@H]1C[C@@H](c2ccccc2)CN1)C(=O)NCc1ccc2c(N)nccc2c1.Cl.Cl [1089_B] ) is −94.63

# Pharmacophore torsion angle a(O1, H4, O2, CA1) (compound: Cc1nc(N)ccc1CNC(=O)[C@H](C)NC(=O)[C@H]1C[C@@H](Cc2ccccc2)CCN1 [compound 1353] ) is −84.72

# Pharmacophore torsion angle a(O1, H4, O2, CA1) (compound: N=C(N)c1ccc(CNC(=O)[C@@H]2CCN2C(=O)[C@H](NCC(=O)O)C2Cc3ccccc3C2)cc1 [compound 1129] ) is −65.27

---

- studySystem: MASP-2 CCP2-SP (Homo sapiens (Human), UniProt O00187)
- Sequence (O00187 445-686): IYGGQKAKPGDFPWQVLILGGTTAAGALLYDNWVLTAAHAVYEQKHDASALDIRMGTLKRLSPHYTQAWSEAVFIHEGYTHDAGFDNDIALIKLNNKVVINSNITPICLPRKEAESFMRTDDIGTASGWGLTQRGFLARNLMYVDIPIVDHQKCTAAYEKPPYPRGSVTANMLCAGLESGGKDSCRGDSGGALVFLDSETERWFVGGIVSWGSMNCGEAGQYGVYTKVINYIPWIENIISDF
- Sequence (O00187 364-432 partner): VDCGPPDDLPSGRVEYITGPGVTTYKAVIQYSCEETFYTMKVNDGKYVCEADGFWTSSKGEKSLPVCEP
- assayComment: MASP-2 co-crystallization, X-ray crystallography and structure analysis (H-bonds, van der Waals contacts)
- Parameters: unit not given beside the values
- conditionInfo: Table A2-12
- Text: This example illustrates the preparation of recombinant MASP-2 protein, based on UniProt O00187, human mannan-binding lectin serine protease 2. Expression constructs for human MASP-2 CCP2-SP and CCP2-SP-6HIS were generated for recombinant expression in E. coli cells. […]
recordedEndpoint: van der Waals contact distance, TRP 655 C to compound atom
Number, no unit, nothing else.

C[C@H](NC(=O)[C@H](N)CCCc1ccccc1)C(=O)NCc1ccc(C(=N)N)cc1: 3.57
Cc1cnc(NCCc2ccccc2)c(=O)n1CC(=O)NCc1ccc2nc(N)[nH]c2c1: 3.7
O=c1oc(-c2ccccc2[N+](=O)[O-])nc2ccccc12: 3.72
C[C@H](NC(=O)[C@H]1C[C@H](c2ccccc2)CN1)C(=O)NCc1ccc(N)nc1: 3.8

The record that follows has no van der Waals contact distance, TRP 655 C to compound atom shown yet.
# van der Waals contact distance, TRP 655 C to compound atom (molecule: Cc1nc(N)ccc1CNC(=O)[C@H](C)NC(=O)[C@H]1C[C@@H](c2cccc3ccccc23)CCN1 ) is 3.89

---

- studySystem: MASP-2 CCP2-SP (Homo sapiens (Human), UniProt O00187)
- assayComment: MASP-2 co-crystallization, X-ray crystallography and structure analysis (H-bonds, van der Waals contacts)
- conditionInfo: Table A6-2 pharmacophore angle
Structures can show the parent of a compound that is named as a salt.
Listing of recorded a(O1, O2, N2) by entry.
Number, no unit, nothing else.

Recorded a(O1, O2, N2), per entry:
Cc1nc(N)ccc1CNC(=O)[C@H](C)NC(=O)[C@H]1C[C@H](Cc2cccc(Cl)c2)CN1.Cl.Cl [1328_2]: 139.05
C[C@H](NC(=O)[C@H](N)C1Cc2ccccc2C1)C(=O)NCc1ccc2c(N)nccc2c1.Cl.Cl [1088_B]: 135.22

# a(O1, O2, N2) (molecule: Cc1nc(N)ccc1CNC(=O)[C@H](C)NC(=O)[C@H]1C[C@H](Cc2ccc3ccccc3c2)CN1 [compound 1338] ) is 141.48

# a(O1, O2, N2) (molecule: C[C@H](NC(=O)[C@@H](CCc1ccccc1)NCCCc1ccc(O)cc1)C(=O)NCc1ccc(C(=N)N)cc1.Cl.Cl [1145_B] ) is 136.24

# a(O1, O2, N2) (molecule: C[C@H](NC(=O)[C@H]1C[C@H](Cc2ccccc2)CN1)C(=O)NCc1cc(Cl)ccc1-n1cnnn1 [compound 1371, Hydrochloride] ) is 146.93

# a(O1, O2, N2) (molecule: C[C@H](NC(=O)[C@H]1Cc2c([nH]c3ccccc23)CN1)C(=O)NCc1ccc(C(=N)N)cc1.Cl.Cl [1097_2] ) is 137.12

# a(O1, O2, N2) (molecule: Cc1nc(N)ccc1CNC(=O)[C@H](C)NC(=O)[C@H]1C[C@H](Cc2cccc(Cl)c2)CN1.Cl.Cl [1328_1] ) is 145.32
